experiment: calcium mobilization in TMEM16A/YFP HEK293 cells, confirmation, counter-screen for TMEM16A inhibitor project (AID 652231); details: TMEM16A/YFP HEK293, Fluo4 calcium mobilization, at 10 µM
In all, about 2,300 compounds went through this assay and about 55 (2%) were called active. The list comes from a sample in which actives are over-represented; it also holds close analogues and randomly drawn compounds.
Quantity: calcium response (% of ionomycin)

Reference set (5 entries):
Give the measured calcium response (% of ionomycin) for CN(c1cccc(NC(=O)c2ccc(CN3CCc4ccccc4C3)cc2)c1)S(C)(=O)=O
inactive

Please give measured calcium response (% of ionomycin) of the following entry: COc1ccc(Cl)cc1NC(=O)CCS(=O)(=O)c1cc2c(cc1C)NC(=O)CO2
inactive

Could you please provide reported calcium response (% of ionomycin) for Cc1cccc(N=Nc2c(O)[nH]c3ccc(F)cc23)c1 ? Thanks!
inactive

Indicate its recorded calcium response (% of ionomycin); the molecule in question is C=CCSc1nsc(NC(=O)Nc2cccc(C(C)=O)c2)n1
inactive

Item Cc1nc(C)c(-c2csc(NCCc3ccccc3)n2)s1 : provide calcium response (% of ionomycin)
inactive

Hey, can you go through the list below and give me calcium response (% of ionomycin) for every item?
1. CCOC(=O)N1CCN(C(=O)c2ccc3c(c2)N(Cc2ccc(C)cc2)CCS3)CC1
2. S=C(NCc1ccc(Cl)cc1)NC12CC3CC(CC(C3)C1)C2

inactive
inactive

For every listed record, write down its calcium response (% of ionomycin).
1. O=C1NC(=O)C2C1C(c1ccc([N+](=O)[O-])cc1)=NN2Cc1ccccc1 (stereo not given)
2. COc1ccc2[nH]cc(/C=C(/C#N)S(=O)(=O)c3ccccc3)c2c1
3. CCn1nccc1C(=O)Nc1ccc(S(=O)(=O)NC23CC4CC(CC(C4)C2)C3)cc1

1. inactive
2. inactive
3. inactive

----------
experiment: calcium mobilization in TMEM16A/YFP HEK293 cells, confirmation, counter-screen for TMEM16A inhibitor project (AID 652231); details: TMEM16A/YFP HEK293, Fluo4 calcium mobilization, at 10 µM
In all, about 2,300 compounds went through this assay and about 55 (2%) were called active. This excerpt belongs to a sample that is enriched for actives.
Quantity: calcium response (% of ionomycin)

Below, 5 compounds whose answers are already recorded.
Consider the compound O=c1cc(C(F)(F)F)[nH]c(=O)n1C1CCCCC1 . State its measured calcium response (% of ionomycin).
inactive

Using known records, supply calcium response (% of ionomycin) for CCCC(=O)Nc1ccccc1N1CCN(C(=O)c2ccccc2)CC1
inactive

Tell us which calcium response (% of ionomycin) value is on record for Cn1c(=O)n(C)c2cc(S(=O)(=O)N3CCCc4ccccc43)ccc21
inactive

Complete the entry with calcium response (% of ionomycin) for COc1ccc(CN(C)C(=O)CC(c2ccccc2)c2ccccc2)cc1
inactive

Indicate the recorded calcium response (% of ionomycin) value for this compound: COc1ccc(-c2nc(CCNC(=O)c3ccc(Br)o3)cs2)cc1
inactive

New cases:
Given the compound CC(NC(=O)c1ccco1)C(=O)Nc1nc(-c2ccccn2)cs1 (stereo unspecified) , write its reported calcium response (% of ionomycin).
inactive
